- Organism: Homo sapiens
- METHOD: Selectivity index, ratio of IC50 for COX1 (unknown origin) to ratio of IC50 for COX2 (unknown origin)
QUANTITY: Ratio IC50

COMPOUND SMILES	MEAS VALUE
O=C(COc1cc(O)c2c(=O)cc(-c3ccccc3)oc2c1)OCc1cc(-c2cccc(F)c2)n(-c2ccccc2)n1	12.2
Cc1cccc(-c2cc(COC(=O)COc3cc(O)c4c(=O)cc(-c5ccccc5)oc4c3)nn2-c2ccc(Cl)cc2)c1	15.6

###

- Species: Homo sapiens
- METHOD: Selectivity index, ratio of IC50 for COX1 (unknown origin) to ratio of IC50 for COX2 (unknown origin)
QUANTITY: Ratio IC50

In the examples that follow, each entry is paired with its recorded Ratio IC50.
COMPOUND SMILES	Ratio IC50
Cc1ccc(-c2cc(COC(=O)COc3cc(O)c4c(=O)cc(-c5ccccc5)oc4c3)nn2-c2ccc(Cl)cc2)cc1	28.4
O=C(COc1cc(O)c2c(=O)cc(-c3ccccc3)oc2c1)OCc1cc(-c2ccccc2)n(-c2ccccc2)n1	13.1
O=C(COc1cc(O)c2c(=O)cc(-c3ccccc3)oc2c1)OCc1cc(-c2cccc([N+](=O)[O-])c2)n(-c2ccccc2)n1	5.68
Cc1ccc(-n2nc(COC(=O)COc3cc(O)c4c(=O)cc(-c5ccccc5)oc4c3)cc2-c2ccc(F)cc2)cc1	10.6

a: Cc1ccc(-n2nc(COC(=O)COc3cc(O)c4c(=O)cc(-c5ccccc5)oc4c3)cc2-c2cccc(Cl)c2)cc1
b: Cc1ccc(-n2nc(COC(=O)COc3cc(O)c4c(=O)cc(-c5ccccc5)oc4c3)cc2-c2ccc(Cl)c(Cl)c2)cc1
[Q] Between item a and item b , which reported Ratio IC50 is smaller? State your choice using its label.
[A] b
